Examples of compounds with documented inhibition follow.
# EXPERIMENT DESCRIPTION: HepG2 cytotoxicity, primary screen, cytotoxicity control for P. falciparum antimalarial project, cell-based, ATP luminescence (AID 2303);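 note: 0% = DMSO wells and 100% = digitonin-killed cells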
# PARTICULARS: HepG2 viability, 24-48 h, at 10 µM, hits give high values
Write down the numeric answer in % and omit the unit.

Before answering, review these 3 worked examples.
- COMPOUND: "CC(C)[C@H]1CC[C@H](C)C[C@@H]1OC(=O)N[C@@H](Cc1ccc(O)cc1)C(=O)NC1CCN(Cc2ccc(OCCCN(C)C)cc2)C1 (stereo not given in full)"
  inhibition (%): 27
- COMPOUND: "CCCCCCCN1CCC(CC(=O)Nc2ccnc3ccc(OC)cc23)CC1"
  inhibition (%): 15
- COMPOUND: "Cc1cc(NC(=O)c2coc3cc(F)c(N4C[C@@H](C)N(C)[C@@H](C)C4)cc23)cnc1-c1ccc(C#N)cc1"
  inhibition (%): 35

# inhibition (compound: CCc1ccc(C2CCN(CCCCNC(=O)c3ccc(NC(=O)c4ccc(Cl)cc4)cc3)CC2)c(OC)c1 ) is 26

inhibition for CN(C)C(CNC(=O)c1cc(-c2ccncc2)c(-c2ccc(NC(=O)Nc3ccccc3)cc2)o1)c1ccccc1 (stereo not given) is 19

Entry CC1(CCCCN2CCC(Oc3ccc(F)cc3F)CC2)C(=O)Nc2ccccc21 (stereo not given) — recorded inhibition = 6

The reported value for N#Cc1ccc2c(c1)CN(C1CCC(NC(=O)/C=C/c3cc(C(F)(F)F)cc(C(F)(F)F)c3)CC1)CCC2 (stereo not given) in terms of inhibition is 34

Reported inhibition ( Cc1ccccc1Nc1nc(NCCCO)c2ccccc2n1 ) = -1

The reported measurements were obtained from PubChem BioAssay.
